Target: T1, Spy H96L (UniProt P77754 24-161, H96L)
T1 construct: also called Super Spy chaperone mutant Spy H96L
T1 sequence (looked up): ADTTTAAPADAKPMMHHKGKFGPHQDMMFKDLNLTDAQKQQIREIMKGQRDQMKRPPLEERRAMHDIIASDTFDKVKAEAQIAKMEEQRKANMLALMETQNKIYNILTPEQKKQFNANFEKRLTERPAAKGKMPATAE
Test: ITC; MicroCal iTC200; titration of Spy H96L (1.25 mM) with the Im7 6–26 peptides (0.11 µM wild type, 0.055 µM pI-Phe peptides); 10°C; 40 mM HEPES–NaOH pH 7.5, 100 mM NaCl; 2 µl injections at 180 s; one-site model
Conditions: both partners purified
measured-parameter: Kd (µM)
One number for each entry, in µM.

Returns the measured Kd for the input binder. Input: SISDYTEAEFVQLLKEIEKEN (also called wild-type Im7 6–26 peptide; Im7 peptide) [Im7 6–26 peptide (wild type)]
7.8
